System: KURAMOCHI
Test details: drug sensitivity score (DSS2) on cancer cell count; higher = more sensitive; extreme values may be limits of the assay
Condition info: co-cultured fibroblast: BJHTERT; 72 h
Label scheme for drug sensitivity score: lower than 3 DSS is Criterion not met, 3 DSS and above is Criterion met.

Qu. Is drug sensitivity score for CNC(=O)CN1CCC(Oc2cc3c(Nc4cccc(Cl)c4F)ncnc3cc2OC)CC1 [Sapitinib] at or above 3 DSS?
Ans. Criterion not met

Qu. Is drug sensitivity score for CCOC(=O)CCNc1cc(N2CCc3ccccc3CC2)nc(-c2ccccn2)n1 [GSK-J4] at or above 3 DSS?
Ans. Criterion met

Qu. Is drug sensitivity score for COc1ccc(-c2ccc3c(N4CCOC[C@@H]4C)nc(N4CCOC[C@@H]4C)nc3n2)cc1CO [AZD8055] at or above 3 DSS?
Ans. Criterion met

Qu. Is drug sensitivity score for COc1cc2ncnc(Nc3ccc(F)c(Cl)c3)c2cc1OCCCN1CCOCC1 [Gefitinib] at or above 3 DSS?
Ans. Criterion not met

Qu. Is drug sensitivity score for C1=N/C2=N/c3ccc(OCCN4CCCC4)c(c3)COC/C=C/COCc3cccc(c3)C(=C1)N2 [Pacritinib] at or above 3 DSS?
Ans. Criterion met

Qu. Is drug sensitivity score for CN1CCC(COc2cnc(-c3cccc(Cn4nc(-c5cccc(C#N)c5)ccc4=O)c3)nc2)CC1 [Tepotinib] at or above 3 DSS?
Ans. Criterion not met

Qu. Is drug sensitivity score for CS(=O)(=O)N1CCN(Cc2cc3nc(-c4cccc5[nH]ncc45)nc(N4CCOCC4)c3s2)CC1 [Pictilisib] at or above 3 DSS?
Ans. Criterion met

Qu. Is drug sensitivity score for CN(C)CCOc1ccc(/C(=C(/CCCl)c2ccccc2)c2ccccc2)cc1 [Toremifene] at or above 3 DSS?
Ans. Criterion not met

Qu. Is drug sensitivity score for CN(C)C[C@@H]1CCn2cc(c3ccccc32)C2=C(C(=O)NC2=O)c2cn(c3ccccc23)CCO1 [Ruboxistaurin] at or above 3 DSS?
Ans. Criterion met

Qu. Is drug sensitivity score for NC[C@@](O)(c1ccc(Cl)cc1)c1ccc(-c2cn[nH]c2)cc1 at or above 3 DSS?
Ans. Criterion not met

Qu. Is drug sensitivity score for Cc1cc2c(F)c(Oc3ncnn4cc(OC[C@@H](C)O)c(C)c34)ccc2[nH]1 [Brivanib] at or above 3 DSS?
Ans. Criterion not met

Qu. Is drug sensitivity score for CC(O)c1cc(C(=O)N[C@@H](C)Cn2ccc(-c3ccc(C#N)c(Cl)c3)n2)n[nH]1 (some centres not stated) [ODM-201] at or above 3 DSS?
Ans. Criterion not met

###

For each of the molecules below, state its drug sensitivity score.
System: OVCAR8
Test details: drug sensitivity score (DSS2) on cancer cell count; higher = more sensitive; extreme values may be limits of the assay
Condition info: co-cultured fibroblast: WI38; 72 h
Kindly provide the numeric value in DSS only, without the unit symbol.

Record for COC(=O)c1ccc2c(c1)[nH]c1ncnc(NCCCN3CCCCC3)c12 under target or system OVCAR8: drug sensitivity score reported as 1.1

Record for CN(C)C[C@@H]1CCn2cc(c3ccccc32)C2=C(C(=O)NC2=O)c2cn(c3ccccc23)CCO1 under target or system OVCAR8: drug sensitivity score reported as 3.8

Record for Cc1nc(NC(=O)N2CCC[C@H]2C(N)=O)sc1-c1ccnc(C(C)(C)C(F)(F)F)c1 under target or system OVCAR8: drug sensitivity score reported as 0

Record for O[C@H](C[C@H]1c2c(F)cccc2-c2cncn21)[C@H]1CC[C@H](O)CC1 under target or system OVCAR8: drug sensitivity score reported as 0

Record for CCN(CC)CCOc1ccc(C(=C(Cl)c2ccccc2)c2ccccc2)cc1 under target or system OVCAR8: drug sensitivity score reported as 10.1

Record for Cc1cc(C(C)Nc2ccccc2)c2nc(N3CCOCC3)cc(=O)n2c1 (configuration not stated) under target or system OVCAR8: drug sensitivity score reported as 7.2

Record for Clc1ccccc1C(c1ccccc1)(c1ccccc1)n1cccn1 under target or system OVCAR8: drug sensitivity score reported as 0

Record for CC[C@H](CC#N)OC(=O)N[C@@H](C)c1cccc(NC(=O)Nc2ccc(-c3cnco3)c(OC)c2)c1 under target or system OVCAR8: drug sensitivity score reported as 15

Record for O=C1NC(=O)[C@@H](c2cn3c4c(cccc24)CCC3)[C@@H]1c1c[nH]c2ccccc12 [Tivantinib] under target or system OVCAR8: drug sensitivity score reported as 6.4

Record for Clc1ccc(C(c2ccccc2Cl)C(Cl)Cl)cc1 (configuration not stated) under target or system OVCAR8: drug sensitivity score reported as 0

Record for O=C(c1cc(Cc2n[nH]c(=O)c3ccccc23)ccc1F)N1CCN(C(=O)C2CC2)CC1 under target or system OVCAR8: drug sensitivity score reported as 6.9

Record for COc1cc2nccc(Oc3ccc(NC(=O)Nc4cc(C)on4)c(Cl)c3)c2cc1OC under target or system OVCAR8: drug sensitivity score reported as 8.9

Record for CC1CCC(n2c3cnccc3c3cnc(Nc4ccc5c(n4)CCN(C(=O)CO)C5)nc32)CC1 (configuration not stated) under target or system OVCAR8: drug sensitivity score reported as 0

Record for COc1cccc2c1c(O)c(C(=O)N(C)c1ccc(C(F)(F)F)cc1)c(=O)n2C under target or system OVCAR8: drug sensitivity score reported as 0

Record for Cn1c(=O)n(-c2ccc(C(C)(C)C#N)cc2)c2c3cc(-c4cnc5ccccc5c4)ccc3ncc21 under target or system OVCAR8: drug sensitivity score reported as 8.2

Record for CC[C@@]1(O)C(=O)OCc2c1cc1n(c2=O)Cc2cc3c(CN(C)C)c(O)ccc3nc2-1 under target or system OVCAR8: drug sensitivity score reported as 23.1

Record for Cc1ccc(C(=O)Nc2ccc(CN3CCN(C)CC3)c(C(F)(F)F)c2)cc1C#Cc1cnc2cccnn12 under target or system OVCAR8: drug sensitivity score reported as 6.5

Record for CNC(=O)c1cc(Oc2ccc(NC(=O)Nc3ccc(Cl)c(C(F)(F)F)c3)c(F)c2)ccn1 under target or system OVCAR8: drug sensitivity score reported as 3.3

Record for Cc1cc(F)c(C(=O)Nc2cccc(-c3nncn3C(C)C)n2)cc1-n1cnc(C2CC2)c1 under target or system OVCAR8: drug sensitivity score reported as 0

Record for Cn1cc(C[C@@H](N)C(=O)O)c2ccccc21 under target or system OVCAR8: drug sensitivity score reported as 0

Record for CC[C@H](Nc1ncnc2[nH]cnc12)c1nc2cccc(F)c2c(=O)n1-c1ccccc1 under target or system OVCAR8: drug sensitivity score reported as 0

Record for Cc1cc2c(C(=O)NC[C@H](C)c3ccccc3)c(O)c(O)cc2c(O)c1-c1c(C)cc2c(C(=O)NC[C@H](C)c3ccccc3)c(O)c(O)cc2c1O under target or system OVCAR8: drug sensitivity score reported as 14.2

###

Test system: KURAMOCHI
Test details: drug sensitivity score (DSS2) on cancer cell count; higher = more sensitive; extreme values may be limits of the assay
Condition info: co-cultured fibroblast: BJHTERT; 72 h
Label scheme for drug sensitivity score: lower than 5 DSS is class 0, 5 DSS and above is class 1.

Qu. Is drug sensitivity score for CNS(=O)(=O)Nc1nccc(Cc2c(C)c3ccc(Oc4ncccn4)cc3oc2=O)c1F at or above 5 DSS?
Ans. class 0

Qu. Is drug sensitivity score for C[C@H]1C[C@@H]2[C@H]([C@@H](O)C[C@@]3(C)[C@H]2CC[C@]3(O)C(=O)CO)[C@@]2(C)C=CC(=O)C=C12 at or above 5 DSS?
Ans. class 0

Qu. Is drug sensitivity score for O=C(Nc1c[nH]nc1-c1nc2ccc(CN3CCOCC3)cc2[nH]1)NC1CC1 at or above 5 DSS?
Ans. class 1

Qu. Is drug sensitivity score for COc1ccc(-c2ccc3ncc4c(c3c2)n(-c2ccc(N3CCNCC3)c(C(F)(F)F)c2)c(=O)n4C)cn1 at or above 5 DSS?
Ans. class 1

Qu. Is drug sensitivity score for N#Cc1ccc2[nH]c(O)c(-c3ccc(CN4CCOCC4)cn3)c2c1 at or above 5 DSS?
Ans. class 0

Qu. Is drug sensitivity score for CCc1nc(C(N)=O)c(Nc2ccc(N3CCC(N4CCN(C)CC4)CC3)c(OC)c2)nc1NC1CCOCC1 at or above 5 DSS?
Ans. class 0

###

System: OVCAR8
Test details: drug sensitivity score (DSS2) on cancer cell count; higher = more sensitive; extreme values may be limits of the assay
Condition info: co-cultured fibroblast: BJHTERT; 72 h
Label scheme for drug sensitivity score: lower than 10 DSS is 0 (no), 10 DSS and above is 1 (yes).

Qu. Is drug sensitivity score for CC(C)c1cc(C(=O)N2Cc3ccc(CN4CCN(C)CC4)cc3C2)c(O)cc1O at or above 10 DSS?
Ans. 1 (yes)

Qu. Is drug sensitivity score for Cc1cc2c(C(=O)NC[C@H](C)c3ccccc3)c(O)c(O)cc2c(O)c1-c1c(C)cc2c(C(=O)NC[C@H](C)c3ccccc3)c(O)c(O)cc2c1O at or above 10 DSS?
Ans. 1 (yes)

Qu. Is drug sensitivity score for CC(C)[C@H]1C(=O)N[C@@H](CCCNC(=N)N)C(=O)NCC(=O)N[C@@H](CC(=O)O)C(=O)N[C@H](Cc2ccccc2)C(=O)N1C [Cilengitide] at or above 10 DSS?
Ans. 0 (no)

Qu. Is drug sensitivity score for Cc1ccc(NS(=O)(=O)c2cccc(C#N)c2)c2[nH]cc(C#N)c12 at or above 10 DSS?
Ans. 0 (no)

Qu. Is drug sensitivity score for C[C@@H]1CN(CC(=O)Nc2ccc3c(c2)Cc2cccc(-c4cc(=O)cc(N5CCOCC5)o4)c2S3)C[C@H](C)O1 at or above 10 DSS?
Ans. 0 (no)

Qu. Is drug sensitivity score for CCN(CC)CCCC(C)Nc1ccnc2cc(Cl)ccc12 (stereo unspecified) at or above 10 DSS?
Ans. 1 (yes)

Qu. Is drug sensitivity score for CC(=O)O[C@@]12CO[C@@H]1C[C@H](O)[C@@]1(C)C(=O)[C@H](O)C3=C(C)[C@@H](OC(=O)[C@H](O)[C@@H](NC(=O)OC(C)(C)C)c4ccccc4)C[C@@](O)([C@@H](OC(=O)c4ccccc4)[C@H]21)C3(C)C at or above 10 DSS?
Ans. 1 (yes)

Qu. Is drug sensitivity score for CC/C(=C(\c1ccc(O)cc1)c1ccc(OCCN(C)C)cc1)c1ccccc1 [4-hydroxytamoxifen] at or above 10 DSS?
Ans. 0 (no)

Qu. Is drug sensitivity score for Cc1cc(OCc2nnc(SC3CCCC3)n2-c2cccnc2)ccc1-c1ccc(S(C)(=O)=O)cc1 at or above 10 DSS?
Ans. 0 (no)

Qu. Is drug sensitivity score for O=C(O)c1ccc(O)c2ncccc12 at or above 10 DSS?
Ans. 0 (no)

Qu. Is drug sensitivity score for O=C(c1ccc(F)c(F)c1Nc1ccc(I)cc1F)N1CC(O)([C@@H]2CCCCN2)C1 at or above 10 DSS?
Ans. 0 (no)
